All values here come from the NTF2 design screens of Basanta et al. (2020).

- PROCEDURE DETAILS: protease stability score; higher = more stable; yeast display proteolysis, trypsin and chymotrypsin;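 further: relative to predicted unfolded state with 0 unfolded-like and 1 meaning tenfold more protease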
OBSERVABLE: protease stability score

> print(dat)
                              entry.sequence  test.result
 1  HEMKEESEKAVRLMVHLFKTGDEETIYRMADPNARFFFDGRHIHGMDHVFREVLRLEREYGVKHFELRDMELRIFDGRIFLHIDGVEEFNGRRLETHLHFESRKIDGRWHFQSESIVLR        0.317
 2  SEDEKHAHEFLEQFIRDWVTGNEESFELMLDPDMRLNINGRDFHGREEAVRHFSHRFKQLGVKHIELKEVDIDVFDGKVHSTYDGVERFNGQELRVRIEVEVLKINGQWYLHRVVVKIE         2.27
 3  DEDKKITDRAFEIFIHNLYTGNEEDLHELADPNVRHIYGDWNVHGMELMTHVLWEIRMKRLNEHDLEIHIINGRAIIDLDGELDGEVNGRRHHRRIIIHVFALKIDGRWHLESMEVKTK         1.35
 4  DEKREESERALNHLFKSMLTGDEEDVRKLADPHAKFIINGRSDIGRESVSHHWHRLWRELGVKHLDVRSFRVYDGRVDSKTRVEIGDKEHEMEVYIVKVNGRWHIEELEFR        -0.12
 5  TEEEKMAEKLWEILVKNAQTGDEDKVLKLIDPHTRFTFNGQTHHGRDTFHHLWKILGVDHVEPHSIEVQGDKAHIDSRLYFNGQVRTYTIIVEKINGRWIVTTIDLH            1
 6  SDVDDMAHKMATLLIDLLETGDWREIRKFADPNVRIEIGDKEYHGMDYHLKHFRDLGWELHLRVERIDVVNGRILIHQEVELRFDGRHDHRKHTLIIEKIDGKWRFNEMIIS         1.09
 7  SEEEELLRRLFELFYKIWHTGDFRSLYENADPNTQLDVGDKRFHGMEVVIEALRQIWEKFGFKVELIDEHHVINGQINMDGLLDINGKKMKTHINLRLIDGVMKTIRIDIR        0.049
 8  DKEEHLVKILIEILHREWETGDEDSISRNADPNTRVDIGDKHFHGREDAMEVLKRMLHQFPNIKFHIEDMRIIGNFVEIDVVINWNGKDVKSHLVFFKINGRWLTRHVEIR         1.32
 9  DEDERHMEKMWRDWVHARYTGDEHRLDELFDPDARMLIDGVDAVGREEVHRLLHKMLKRLGIKHIEHVRITHIEIQGDKIHIENEIRGIVGDKTTTVEVHLVIIKVDGQWRIRSVEEK         1.14
10  DEIEEIAREIAKELHHLILTGDEDRLNELMDPNVKFESIVNGRRIESIGRENVKEVLRRLLEKLGLDRFSFIRRDIKYFDGVIHIFGQLEIDGVRHETEIIIFIVNGKVKSIRIRIQ         1.14
11  DENEEQLEDSVRMYIEAVQTGDEDSLRKLMDPHWRLEYGDKELHGRWALEVRHKFFKGMRIHHIEVHSVEIQGDKAKIIIHVLMEFDGRRLHIKTEVTVQKINGRWFNHSEKIN         1.14
